src = paper PMC4072508

tested on: T1, Mcl-1, Q07820
T1 chain: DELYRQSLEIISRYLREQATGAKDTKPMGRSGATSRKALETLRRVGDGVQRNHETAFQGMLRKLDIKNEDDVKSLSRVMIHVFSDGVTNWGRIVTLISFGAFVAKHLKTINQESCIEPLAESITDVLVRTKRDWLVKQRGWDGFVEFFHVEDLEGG
assay details: peptide SPOT array, c-Myc-tagged receptor at 1 uM or 100 nM, anti-c-Myc-Cy3
experimental readout: SPOT signal as a fraction of Bim BH3's signal on the same receptor and array
Just the number.

AVLCVECGYKYRFFGEDAEIAARELN [MSH3] | 0.01
ASEAMLFEEALEKYGKDFNDIRQDFL [MTA2] | 0.03

Query string: State the recorded SPOT signal as a fraction of Bim BH3's signal on the same receptor and array for this entry: EAVTDGLKRADRSFGNALGNCILDKD [RAD52]
Result string: 0.04

Query string: How about SGLPGLSSVDDNNFGDSINESEGIPL [MKI67] ?
Result string: 0.03

Query string: How about NNNMDVESRTDATMGDTLASRGLLDA [SEC16A] ?
Result string: 0.03

Query string: How about LCKEKPTTALLDKVADNLAIQLAAVT [ILF3] ?
Result string: 0.02

Query string: How about KTVVDLVSADLEEVAQKCGLSYKAEA [RAD51L3] ?
Result string: 0.01

Query string: How about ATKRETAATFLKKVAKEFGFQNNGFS [NPLOC4] ?
Result string: 0.23

Query string: How about TLHFNQRGTWDASGSDDLKVVVWDWV [DCAF8] ?
Result string: 0.02
